Entry source: the supplement of paper PMC7726561

- target under test: HLA-A*02:01;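 further: lysates heated 10 min at 37–73 °C, complexes pulled down with pan-HLA I antibody, peptide signal by DIA-MS relative to 37 °C, Tm where half the complex is unfolded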
- assay comment: thermal melting temperature (Tm) of peptide-HLA complex; higher = more thermostable pHLA complex
- condition summary: C1R-A*02:01
The full ranking holds about 1,100 sequences; the median of “thermal melting temperature (Tm) of peptide-HLA complex” is about 58, and the lowest 2% start at about 42. Many of the other results were omitted from the sample, so the lowest values are more common in it than they were.
readout kind: thermal melting temperature (°C)
Dear colleague, please return just the value in °C, with no unit written.

| item sequence | thermal melting temperature [°C] |
| --- | --- |
| FLMKNSDLYGA | 58.4 |

Q: Reported thermal melting temperature, sequence ALFPAPLAQI : ____
A: 62.7

Q: Reported thermal melting temperature, sequence FLAELPGSLSL : ____
A: 49.3

Q: Reported thermal melting temperature, sequence GMDRYLIYV : ____
A: 60.9
